# Target entity: Proteinase-activated receptor 1 (Homo sapiens)
# Sequence (P25116 whole entry): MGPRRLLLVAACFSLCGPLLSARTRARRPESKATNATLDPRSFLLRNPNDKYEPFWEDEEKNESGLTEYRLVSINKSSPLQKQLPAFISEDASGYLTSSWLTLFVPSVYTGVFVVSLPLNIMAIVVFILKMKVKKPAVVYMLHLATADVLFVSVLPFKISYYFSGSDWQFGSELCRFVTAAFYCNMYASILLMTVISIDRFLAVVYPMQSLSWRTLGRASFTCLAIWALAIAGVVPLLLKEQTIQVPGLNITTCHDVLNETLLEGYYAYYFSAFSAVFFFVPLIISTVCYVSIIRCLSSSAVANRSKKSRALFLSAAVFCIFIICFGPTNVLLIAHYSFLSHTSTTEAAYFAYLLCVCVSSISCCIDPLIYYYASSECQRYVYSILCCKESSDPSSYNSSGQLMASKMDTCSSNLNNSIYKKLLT
# Procedure details: Displacement of [3H]haTRAP from human PAR1 after 1 hr by TopCount scintillation counting
# Condition set: read-out: IC50
Measurement type: pIC50
Kindly note that pIC50 refers to -log10 of the concentration in mol/L and answer with the value alone.

>>> print(df.to_string())
                              sample_smiles  measured_number
0  CC[C@H]1[C@H](/C=C/c2ccc(-c3cc(Cl)ccc3Cl)cn2)[C@@H]2[C@@H](C)OC(=O)[C@@H]2C[C@@H]1C             6.29
1  CC[C@H]1[C@H](/C=C/c2ccc(-c3cccc(C)c3)cn2)[C@@H]2[C@@H](C)OC(=O)[C@@H]2C[C@@H]1C             7.35

Ask: Quick check: pIC50 on Proteinase-activated receptor 1 (Homo sapiens), item CC[C@H]1[C@H](/C=C/c2ccc(-c3cccnc3)cn2)[C@@H]2[C@@H](C)OC(=O)[C@]2(O)C[C@@H]1C ?
Result: 7.31

Ask: Quick check: pIC50 on Proteinase-activated receptor 1 (Homo sapiens), item CC[C@H]1[C@H](/C=C/c2ccc(-c3cccc(F)c3)cn2)[C@@H]2[C@@H](C)OC(=O)[C@]2(O)C[C@@H]1C ?
Result: 7.57

Ask: Quick check: pIC50 on Proteinase-activated receptor 1 (Homo sapiens), item CC[C@H]1[C@H](/C=C/c2ccc(-c3ccccc3C)cn2)[C@@H]2[C@@H](C)OC(=O)[C@@H]2C[C@@H]1C ?
Result: 7.70

Ask: Quick check: pIC50 on Proteinase-activated receptor 1 (Homo sapiens), item CC[C@H]1[C@H](/C=C/c2ccc(-c3ccoc3)cn2)[C@@H]2[C@@H](C)OC(=O)[C@]2(O)C[C@@H]1C ?
Result: 8.07

Ask: Quick check: pIC50 on Proteinase-activated receptor 1 (Homo sapiens), item CC[C@H]1[C@H](/C=C/c2ccc(-c3ccccc3)cn2)[C@@H]2[C@@H](C)OC(=O)[C@]2(O)C[C@@H]1C ?
Result: 8.19

Ask: Quick check: pIC50 on Proteinase-activated receptor 1 (Homo sapiens), item CC[C@H]1[C@H](/C=C/c2ccc(N3CCCC3)cn2)[C@@H]2[C@@H](C)OC(=O)[C@]2(O)C[C@@H]1C ?
Result: 7.19

Ask: Quick check: pIC50 on Proteinase-activated receptor 1 (Homo sapiens), item CC[C@H]1[C@H](/C=C/c2ccc(-c3cccc(C(F)(F)F)c3)cn2)[C@@H]2[C@@H](C)OC(=O)[C@@H]2C[C@@H]1C ?
Result: 7.62

Ask: Quick check: pIC50 on Proteinase-activated receptor 1 (Homo sapiens), item CC[C@H]1[C@H](/C=C/c2ccc(-c3cccc(F)c3)cn2)[C@@H]2[C@@H](C)OC(=O)[C@@H]2C[C@@H]1C ?
Result: 7.82

---

# Procedure details: AUC (0 to 24 hrs) in cynomolgus monkey plasma at 3 mg/kg, po
# Format: ADME, organism-based, Macaca fascicularis
# Set-up: time < 24 hr, dose 3 mg/kg, route oral
Measurement type: AUC(0-t) at 24 h
// return the numeric value with its unit appended

In [3]: df
Out[3]:
                              sample_smiles        result
0  CC[C@H]1[C@H](/C=C/c2ccc(-c3ccccc3C)cn2)[C@@H]2[C@@H](C)OC(=O)[C@]2(O)C[C@@H]1C.Cl  2720 ng·h/mL

Ask: Item under review: CC[C@H]1[C@H](/C=C/c2ccc(-c3cccc(F)c3)cn2)[C@@H]2[C@@H](C)OC(=O)[C@@H]2C[C@@H]1C . Reported AUC(0-t) at 24 h?
Result: 451 ng·h/mL

Ask: Item under review: CC[C@H]1[C@H](/C=C/c2ccc(-c3ccoc3)cn2)[C@@H]2[C@@H](C)OC(=O)[C@]2(O)C[C@@H]1C.Cl . Reported AUC(0-t) at 24 h?
Result: 4110 ng·h/mL
